These data points were gathered from the supplement of paper PMC10567573.

protein stability index by entry:
B1: CAMK2D (parent)
chain: LLKHPNIVRLHDSISEEGFHYLVF

# Variants of: B1
# experiment description: protein stability index of a GFP-peptide fusion (GPS, HEK-293T) (PSI 1-6); higher = more stable;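 note: lentivirally expressed fusions sorted by FACS into six bins by GFP to DsRed ratio, PSI derived from sequencing read proportions per bin multiplied by bin number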
# setup conditions: c terminus: a fixed tail appended
Number only, no unit.

mutant code	protein stability index
H20W	1.42
P5T	2.59
F19N	2.03
E17C	2.99
V8W	3.27
L22C	2.18
E16Q	3.03
P5V	2.56

// lookup protein stability index for L22S
1.81

Can you check R9L next?
3.22
